System: Escherichia coli TOP10;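 further: peptides expressed intracellularly from a pBAD plasmid library in pooled LB shake-flask culture, induced with 0.3% L-arabinose, DNA abundance read by NGS, three biological replicates, DESeq2 with apeglm shrinkage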
Test: shrunken log2 fold change of peptide-encoding DNA abundance (4.5 h post-induction vs induction); higher = less antimicrobial activity (less host growth inhibition)
Settings: time post-induction: 4.5 h; library: site-saturation at positions 5, 18, 19, 20
METRIC: shrunken log2 fold change
Write no unit; give the number alone.

• RRIRRRPPRLPRPRPRPTRIPRP = 0.71
• RRIRKRPPRLPRPRPRPSKYPRP = -0.00772
• RRIRVRPPRLPRPRPRPNLWPRP = -0.0401
• RRIRNRPPRLPRPRPRPNDHPRP = -0.153
• RRIRMRPPRLPRPRPRPLCQPRP = 0.0549
• RRIRLRPPRLPRPRPRPKGMPRP = -0.0948

We now examine a further sequence.
Input: Quick one: shrunken log2 fold change of RRIRQRPPRLPRPRPRPAQWPRP ?
Output: 0.166
